Listed variants paired with reported protein stability index
B1: MYBL2 (parent)
chain: IAKHLKGRLGKQCRERWHNHLNPE

- Variants of: B1
- PROCEDURE_SUMMARY: protein stability index of a GFP-peptide fusion (GPS, HEK-293T) (PSI 1-6); higher = more stable;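 also: lentivirally expressed fusions sorted by FACS into six bins by GFP to DsRed ratio, PSI derived from sequencing read proportions per bin multiplied by bin number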
- REPORTED_CONDITIONS: c terminus: a fixed tail appended
REPORTED_PROPERTY: protein stability index

In [3]: df
Out[3]:
    mutation_label  experimental_result
 0            C13Q                 1.96
 1             G7W                 2.74
 2             K3F                 2.46
 3             K3N                  1.8
 4             K6A                  1.7
 5             R8S                  1.8
 6            K11T                 1.67
 7            R14T                 2.61
 8             R8V                  1.6
 9             A2Q                 2.03
10             L5V                 2.18
11            K11E                 2.46
12            R16G                 1.71
13            L21T                  2.3
14             G7K                 1.77
15            E24I                 2.27
16            C13G                 2.54
17            C13F                 1.65
18            P23I                 2.14
19             A2D                 2.15
20            H20K                 2.18
21            R14V                 1.74
22             K6N                 2.21
23             I1Q                 2.64
24            H18V                  1.1
25             A2R                 2.53
26            R16Y                 2.41
27            P23F                 3.01
28            Q12A                 1.29
29             H4V                  3.2
30             H4P                 2.15
31            N19I                 3.11
32            C13I                 2.58
33             L9H                    2
34            R14G                 2.03
35            N22S                 2.29
36            K11F                  1.4
37            K11S                 2.43
38            W17P                 3.13
39            C13S                 2.14
40            P23K                 2.26
41            H18L                 1.55
42            L21A                 2.16
43             I1W                 1.36
44            W17R                  2.4
45             I1V                 2.54
46            Q12P                 1.54
47             H4A                 2.33
48            N19V                 2.05
49            N22R                 1.64
50            E15Y                 2.12
51             I1P                  2.6
52             G7M                 1.77
53            L21Y                 1.85
54            N22V                 2.44
55            P23L                 1.66
56             I1A                 2.37
57            H20M                 1.06
58            R14M                 1.29
59            H18K                 2.87
60             H4S                 1.73
61             R8D                 2.41
62            K11C                 2.09
63             R8H                 1.91
64             H4K                 2.12
65             K3T                 1.81
66            R14F                 1.47
